test system: 126254-015-R-J1-PDC complex spheroid growth, % test/control; experiment: Anticancer human tumor 126254-015-R-J1-PDC patient-derived soft tissue sarcoma cell line growth inhibition [Asc]; conditions: second compound 0.316 µM; first compound 0.0949 µM; stronger effect = lower value;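 note: spheroids exposed to compound for seven days; 100% = DMSO vehicle control wells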
Each entry below carries its recorded viability, T/C.
assay-metric: viability, T/C

{"compound": "Cc1nc(N2CCC3(CC2)COC(C)C3N)c(CO)nc1Sc1ccnc(N)c1Cl (stereo not drawn) + Cc1c(S(C)(=O)=O)c(-c2cc(F)cc(N3CCN(c4ccc(NS(=O)(=O)c5ccc(NC(CCN6CCC(C(=O)OCCCP(=O)(O)O)CC6)CSc6ccccc6)c(S(=O)(=O)C(F)(F)F)c5)cc4)CC3)c2)c(-c2ccc(Cl)cc2)n1C(C)C", "assay-metric": "viability, T/C", "observed-measurement": "67.8%"}
{"compound": "NC(=O)C(=Cn1cnc(-c2cc(C(F)(F)F)cc(C(F)(F)F)c2)n1)c1cncnc1 + Cc1c(S(C)(=O)=O)c(-c2cc(F)cc(N3CCN(c4ccc(NS(=O)(=O)c5ccc(NC(CCN6CCC(C(=O)OCCCP(=O)(O)O)CC6)CSc6ccccc6)c(S(=O)(=O)C(F)(F)F)c5)cc4)CC3)c2)c(-c2ccc(Cl)cc2)n1C(C)C", "assay-metric": "viability, T/C", "observed-measurement": "23%"}
{"compound": "NC(=O)C(=Cn1cnc(-c2cc(C(F)(F)F)cc(C(F)(F)F)c2)n1)c1cncnc1 + CNC(C)C(=O)NC1CN(S(=O)(=O)c2cccc(S(=O)(=O)N3CCC4CCC(C(=O)NC(c5ccccc5)c5ccccc5)N4C(=O)C(NC(=O)C(C)NC)C3)c2)CCC2CCC(C(=O)NC(c3ccccc3)c3ccccc3)N2C1=O", "assay-metric": "viability, T/C", "observed-measurement": "15.1%"}
